# ASSAY_SUMMARY: gradient 5% acetonitrile 3 min, to 50% in 2 min, to 85% in 15 min, held 3 min, 100 µL/min
# CONDITION_DETAILS: column: Zorbax Extend-C18 2.1 x 50 mm; eluents: water / acetonitrile, 0.1% formic acid
QUANTITY_MEASURED: RP-LC retention time (s)

{"columns": ["MOLECULE", "QUANTITY_MEASURED", "VALUE_OBSERVED"],
 "data": [
  ["COc1cc(C2NCCc3c2[nH]c2ccccc32)ccc1OC(C)C (centres undefined)", "RP-LC retention time", 676],
  ["CCN1C(SCC(=O)Nc2c(C)cc(C)cc2C)=NS(=O)(=O)c2ccccc21", "RP-LC retention time", 788],
  ["O=C(CCC1CCN(c2cc(NC3CC3)ncn2)CC1)NCc1ccccc1F", "RP-LC retention time", 673],
  ["CC(=O)Nc1ccc(C)cc1S(=O)(=O)N1CCC2(CC1)Nc1ccc(C)c(C)c1-n1cccc12", "RP-LC retention time", 1070],
  ["COc1cccc(C(=O)Nc2ccc3c(c2)Sc2ncccc2C(=O)N3C(C)C)c1OC", "RP-LC retention time", 915],
  ["O=C(Nc1cccc(-c2ccc(N3CCOCC3)nn2)c1)Nc1ccc2c(c1)OCCO2", "RP-LC retention time", 659],
  ["CCn1cc(S(=O)(=O)N2CCc3ccccc3C2)c2cccnc21", "RP-LC retention time", 950],
  ["COc1ccc(-c2cc3c(=O)n(Cc4noc(CN5CCC(C)CC5)n4)ccn3n2)cc1", "RP-LC retention time", 664],
  ["Cc1ccn2c(Nc3ccccc3C)c(-c3ccc(N(C)C)cc3)nc2c1", "RP-LC retention time", 809]
]}

----------
# ASSAY_SUMMARY: gradient 5% acetonitrile 3 min, to 50% in 2 min, to 85% in 15 min, held 3 min, 100 µL/min
# CONDITION_DETAILS: column: Zorbax Extend-C18 2.1 x 50 mm; eluents: water / acetonitrile, 0.1% formic acid
QUANTITY_MEASURED: RP-LC retention time (s)

// solved cases for RP-LC retention time follow
{"columns": ["SMI", "RP-LC retention time, s"],
 "data": [
  ["O=C(CSc1nccn1Cc1ccco1)NC1CCCCC1", 589],
  ["Cc1cc2n(n1)CCCN2C(=O)CCC(=O)NC1CCN(Cc2ccccc2)CC1", 579],
  ["CC1=NS(=O)(=O)N(C)C=C1C(=O)OCc1nc(-c2ccc(C)cc2)no1", 977],
  ["Cc1oc(C2CCN(S(=O)(=O)c3ccc(F)c(F)c3)CC2)nc1C(=O)N1CCCC1", 936],
  ["CCOC(=O)CNC(=O)NCCn1c(-c2ccc(F)cc2)nc2ccccc21", 592]
]}

[I] O=C(NC1CC1)[C@@H]1C[C@H](Oc2ccccc2)CN1C(=O)C1CC1
[II] COc1ccc(S(=O)(=O)N2CCC(c3cnn(-c4ccc(C)cc4)c3)CC2)cc1
Q) Kindly identify which of I and II has the larger recorded RP-LC retention time value. Identify your pick by its label.
A) II

----------
# ASSAY_SUMMARY: gradient 5% acetonitrile 3 min, to 50% in 2 min, to 85% in 15 min, held 3 min, 100 µL/min
# CONDITION_DETAILS: column: Zorbax Extend-C18 2.1 x 50 mm; eluents: water / acetonitrile, 0.1% formic acid
QUANTITY_MEASURED: RP-LC retention time (s)

// solved cases for RP-LC retention time follow
{"columns": ["COMPOUND", "VALUE_OBSERVED"],
 "data": [
  ["CCn1cc(-c2ccc(Cl)cc2)cc1C(=O)NCc1ccccn1", 790],
  ["COc1ccccc1NC(=O)N1c2ccccc2NC2=C(C(=O)CCC2)C1c1ccco1 (stereo not drawn)", 830],
  ["COCCCn1c(=O)c2ccccc2n(Cc2nc(-c3cccc(C(F)(F)F)c3)no2)c1=O", 1080],
  ["CCCn1cc(CCNS(=O)(=O)c2ccc(Cl)s2)c2cccnc21", 899],
  ["CC(C)n1cnc2cc(CNC(=O)C3CCCCC3)ccc21", 611]
]}

[a] CCc1noc(NC(C)=O)c1-c1ccc(OC)c(S(=O)(=O)Nc2ccc3c(c2)OCCO3)c1
[b] CCOc1ccc(-c2noc(CN3C(=O)COc4cc(Cl)ccc43)n2)cc1
Q) Kindly identify which of a and b has the larger recorded RP-LC retention time value. Identify your pick by its label.
A) b
(b: 1180 s, a: 736 s)
